System: MCF-7 cells
assayMethodText: MTT cytotoxicity assay on breast adenocarcinoma (MCF-7) cells
Assay type: cell-based, human
conditionSummary: Homo sapiens, MCF7; MTT, 48 h incubation, MCF-7; read-out: MCF-7 EC50 (μM) ± SE
metricName: EC50 (µM)

[[record]]
compound = "CCCCC/C=C\\C/C=C\\CCCCCCCC(=O)NCC(O)CO (centres unmarked)"
metricname = "EC50"
resultqualifier = "="
numericresult = 19.2

[[record]]
compound = "CC/C=C\\C/C=C\\C/C=C\\C/C=C\\C/C=C\\C/C=C\\CCC(=O)Nc1ccc(O)cc1"
metricname = "EC50"
resultqualifier = "="
numericresult = 74.3

[[record]]
compound = "CC/C=C\\C/C=C\\C/C=C\\C/C=C\\C/C=C\\C/C=C\\CCC(=O)NCCN"
metricname = "EC50"
resultqualifier = "="
numericresult = 86

[[record]]
compound = "CC/C=C\\C/C=C\\C/C=C\\C/C=C\\C/C=C\\C/C=C\\CCC(=O)NCCc1ccccc1"
metricname = "EC50"
resultqualifier = "≥"
numericresult = 100

[[record]]
compound = "CC/C=C\\C/C=C\\C/C=C\\C/C=C\\C/C=C\\C/C=C\\CCC(=O)N(CCO)CCO [Compound D2]"
metricname = "EC50"
resultqualifier = "≥"
numericresult = 100

[[record]]
compound = "CCCCC/C=C\\C/C=C\\CCCCCCCC(=O)N1CCOCC1"
metricname = "EC50"
resultqualifier = "="
numericresult = 24.6

[[record]]
compound = "CCCCC/C=C\\C/C=C\\CCCCCCCC(=O)N(CCO)CCO"
metricname = "EC50"
resultqualifier = "≥"
numericresult = 100

[[record]]
compound = "CCCCC/C=C\\C/C=C\\CCCCCCCC(=O)NCCO"
metricname = "EC50"
resultqualifier = "≥"
numericresult = 100

[[record]]
compound = "CCCCC/C=C\\C/C=C\\CCCCCCCC(=O)Nc1ccc(O)cc1"
metricname = "EC50"
resultqualifier = "="
numericresult = 52.4

[[record]]
compound = "CC/C=C\\C/C=C\\C/C=C\\C/C=C\\C/C=C\\C/C=C\\CCC(=O)NCC(O)CO (centres unmarked)"
metricname = "EC50"
resultqualifier = "="
numericresult = 98.6

[[record]]
compound = "CC/C=C\\C/C=C\\C/C=C\\C/C=C\\C/C=C\\C/C=C\\CCC(=O)N1CCN(C)CC1"
metricname = "EC50"
resultqualifier = "≥"
numericresult = 100


src = paper PMC12297039
